A collection of compounds and their measured selectivity ratio
# testMethodNotes: Selectivity index, ratio of CC50 for cytotoxicity against MDCK cells assessed as reduction in cell viability to IC50 for antiviral activity against Influenza A virus A/HK/1/68 infected in MDCK cells MOI 0.01 assessed as inhibition of viral growth
# Type: toxicity, cell-based
# testContext: dog, read-out: Ratio CC50/IC50

- sampleSmiles: "O=C(O)c1ccccc1Nc1ccnc2cc(C(F)(F)F)ccc12"
  selectivity ratio: "> 4"
- sampleSmiles: "O=C(NCCCN1CCOCC1)c1ccccc1Nc1ccnc2ccc(Cl)cc12"
  selectivity ratio: "> 15"
- sampleSmiles: "O=C(Nc1cccc([N+](=O)[O-])c1)c1ccccc1Nc1ccnc2cc(C(F)(F)F)ccc12"
  selectivity ratio: "> 12"

----------
# testMethodNotes: Cytotoxicity against MDCK cells assessed as reduction in cell viability incubated for 48 hrs by MTT assay
# Format: toxicity, cell-based, Canis lupus familiaris
# testContext: dog
propertyName: CC50 at 48 h

- sampleSmiles: "O=C(NCCN1CCN(c2ccccc2OC(F)(F)F)CC1)c1ccccc1Nc1ccnc2cc(C(F)(F)F)ccc12"
  obsValue: "> 100 µM"
- sampleSmiles: "CN(C)CCNC(=O)c1ccccc1Nc1ccnc2cc(C(F)(F)F)ccc12"
  obsValue: "17.4 µM"
- sampleSmiles: "O=C(Nc1cccc([N+](=O)[O-])c1)c1ccccc1Nc1ccnc2cc(C(F)(F)F)ccc12"
  obsValue: "> 100 µM"
- sampleSmiles: "Cc1ccc(N2CCN(CCNC(=O)c3ccccc3Nc3ccnc4cc(C(F)(F)F)ccc34)CC2)c(C)c1"
  obsValue: "> 100 µM"
- sampleSmiles: "O=C(CNC(=O)c1ccccc1Nc1ccnc2cc(C(F)(F)F)ccc12)NCc1ccccc1"
  obsValue: "> 100 µM"
- sampleSmiles: "O=C(CNC(=O)c1ccccc1Nc1ccnc2ccc(Cl)cc12)NC1CCCCC1"
  obsValue: "21.6 µM"
- sampleSmiles: "O=C(NCC(=O)N1CCN(c2cccc(Cl)c2Cl)CC1)c1ccccc1Nc1ccnc2ccc(Cl)cc12"
  obsValue: "> 50 µM"
- sampleSmiles: "NC(=O)c1ccccc1Nc1ccnc2ccc(Cl)cc12"
  obsValue: "> 100 µM"
- sampleSmiles: "CN(C)CCNC(=O)c1ccccc1Nc1ccnc2ccc(Cl)cc12"
  obsValue: "19.9 µM"
- sampleSmiles: "NC(=O)c1ccccc1Nc1ccnc2cc(C(F)(F)F)ccc12"
  obsValue: "> 100 µM"
- sampleSmiles: "O=C(NCCCN1CCOCC1)c1ccccc1Nc1ccnc2ccc(Cl)cc12"
  obsValue: "> 50 µM"
- sampleSmiles: "CCOC(=O)c1ccccc1Nc1ccnc2cc(C(F)(F)F)ccc12"
  obsValue: "> 100 µM"
- sampleSmiles: "O=C(CNC(=O)c1ccccc1Nc1ccnc2cc(C(F)(F)F)ccc12)NCCCN1CCOCC1"
  obsValue: "> 50 µM"
- sampleSmiles: "O=C(NCCCO)c1ccccc1Nc1ccnc2cc(C(F)(F)F)ccc12"
  obsValue: "> 100 µM"
- sampleSmiles: "COC(=O)c1ccccc1Nc1ccnc2cc(C(F)(F)F)ccc12"
  obsValue: "> 100 µM"
- sampleSmiles: "O=C(O)c1ccccc1Nc1ccnc2ccc(Cl)cc12"
  obsValue: "> 100 µM"
- sampleSmiles: "O=C(O)c1ccccc1Nc1ccnc2cc(C(F)(F)F)ccc12"
  obsValue: "> 100 µM"

----------
# testMethodNotes: Selectivity index, ratio of CC50 for cytotoxicity against MDCK cells assessed as reduction in cell viability to IC50 for antiviral activity against Influenza A virus B/Florida/4/06 infected in MDCK cells MOI 0.01 assessed as inhibition of viral growth
# Type: toxicity, cell-based
# testContext: dog, read-out: Ratio CC50/IC50

- sampleSmiles: "O=C(NCCCN1CCOCC1)c1ccccc1Nc1ccnc2ccc(Cl)cc12"
  selectivity ratio: "> 15"
- sampleSmiles: "O=C(Nc1cccc([N+](=O)[O-])c1)c1ccccc1Nc1ccnc2cc(C(F)(F)F)ccc12"
  selectivity ratio: "> 8"
- sampleSmiles: "O=C(O)c1ccccc1Nc1ccnc2cc(C(F)(F)F)ccc12"
  selectivity ratio: "> 4"
